- targetOrTestSystem: hNav1.7 and the β1 subunit (Homo sapiens, UniProt Q15858)
- Construct: expressed in transfected cells
- Sequence (Q15858 whole entry): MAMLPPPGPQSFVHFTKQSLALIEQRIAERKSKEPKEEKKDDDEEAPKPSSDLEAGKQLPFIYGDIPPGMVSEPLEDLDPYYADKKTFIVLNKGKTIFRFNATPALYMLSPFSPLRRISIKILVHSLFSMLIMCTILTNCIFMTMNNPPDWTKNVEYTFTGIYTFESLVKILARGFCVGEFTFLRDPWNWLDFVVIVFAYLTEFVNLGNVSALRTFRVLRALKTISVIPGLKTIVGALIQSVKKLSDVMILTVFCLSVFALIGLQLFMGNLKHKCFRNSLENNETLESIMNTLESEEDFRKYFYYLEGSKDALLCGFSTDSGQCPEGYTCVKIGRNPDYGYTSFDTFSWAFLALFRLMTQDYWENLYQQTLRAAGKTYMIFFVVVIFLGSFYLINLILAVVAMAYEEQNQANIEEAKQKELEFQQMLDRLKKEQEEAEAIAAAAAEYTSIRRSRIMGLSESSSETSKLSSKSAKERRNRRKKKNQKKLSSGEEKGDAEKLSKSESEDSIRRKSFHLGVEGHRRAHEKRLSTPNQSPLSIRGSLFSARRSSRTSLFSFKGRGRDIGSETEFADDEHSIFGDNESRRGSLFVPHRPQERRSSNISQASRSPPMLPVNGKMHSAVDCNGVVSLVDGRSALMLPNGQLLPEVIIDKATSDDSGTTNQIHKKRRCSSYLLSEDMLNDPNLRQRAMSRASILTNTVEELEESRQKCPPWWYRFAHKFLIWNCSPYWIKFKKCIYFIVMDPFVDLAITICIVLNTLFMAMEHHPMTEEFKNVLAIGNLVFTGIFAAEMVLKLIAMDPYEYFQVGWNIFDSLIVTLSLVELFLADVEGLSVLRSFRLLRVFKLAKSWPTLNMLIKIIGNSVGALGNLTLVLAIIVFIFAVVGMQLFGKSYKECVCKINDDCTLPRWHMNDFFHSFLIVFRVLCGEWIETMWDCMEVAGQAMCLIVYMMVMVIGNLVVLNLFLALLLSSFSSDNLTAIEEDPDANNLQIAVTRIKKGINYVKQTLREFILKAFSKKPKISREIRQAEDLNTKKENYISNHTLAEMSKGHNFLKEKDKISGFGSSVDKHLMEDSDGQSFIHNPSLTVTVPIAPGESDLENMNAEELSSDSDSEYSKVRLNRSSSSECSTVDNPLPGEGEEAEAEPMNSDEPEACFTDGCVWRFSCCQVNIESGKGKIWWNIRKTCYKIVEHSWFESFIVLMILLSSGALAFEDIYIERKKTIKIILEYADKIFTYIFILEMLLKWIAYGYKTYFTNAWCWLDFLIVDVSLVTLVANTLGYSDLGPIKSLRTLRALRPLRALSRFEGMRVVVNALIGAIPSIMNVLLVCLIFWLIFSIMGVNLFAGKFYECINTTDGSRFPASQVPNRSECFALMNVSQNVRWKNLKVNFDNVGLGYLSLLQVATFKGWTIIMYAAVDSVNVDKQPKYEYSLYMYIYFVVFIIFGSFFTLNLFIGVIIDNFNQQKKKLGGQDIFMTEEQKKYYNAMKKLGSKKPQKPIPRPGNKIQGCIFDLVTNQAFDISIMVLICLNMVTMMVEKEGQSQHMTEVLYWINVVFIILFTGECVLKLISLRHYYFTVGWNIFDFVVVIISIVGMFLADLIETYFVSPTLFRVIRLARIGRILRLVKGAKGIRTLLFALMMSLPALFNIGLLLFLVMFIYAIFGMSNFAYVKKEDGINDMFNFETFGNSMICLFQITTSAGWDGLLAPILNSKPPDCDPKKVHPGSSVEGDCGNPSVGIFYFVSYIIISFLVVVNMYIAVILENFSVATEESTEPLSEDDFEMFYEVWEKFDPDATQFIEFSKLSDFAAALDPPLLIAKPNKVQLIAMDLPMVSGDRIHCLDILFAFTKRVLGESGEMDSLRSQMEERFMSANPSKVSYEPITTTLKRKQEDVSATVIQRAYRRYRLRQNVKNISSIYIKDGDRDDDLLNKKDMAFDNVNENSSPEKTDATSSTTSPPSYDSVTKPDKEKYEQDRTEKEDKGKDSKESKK
- Sequence (Q07699 19-218 partner): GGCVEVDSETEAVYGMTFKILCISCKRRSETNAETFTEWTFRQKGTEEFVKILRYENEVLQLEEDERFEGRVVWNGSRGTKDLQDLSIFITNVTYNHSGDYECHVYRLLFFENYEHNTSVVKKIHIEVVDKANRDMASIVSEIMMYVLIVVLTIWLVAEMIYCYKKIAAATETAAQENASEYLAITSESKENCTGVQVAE
- measurementNotes: Tritiated compound competitive binding to membranes from cells heterologously expressing hNav1.7 and the β1 subunit (LBA)
- settings: competition with 100 pM [3H]compound, 18 h, room temperature; IC50 by 4 parameter logistic model
assayMetric: Nav1.7 (LBA) (µM)

| compound | targetOrTestSystem | Nav1.7 (LBA) (µM) |
| --- | --- | --- |
| O=S(=O)(Nc1ncns1)c1ccc2c(c1)OCC[C@@H]2N1CCC2(CC1)COC2 | hNav1.7 and the β1 subunit (Homo sapiens, UniProt Q15858) | 5.5 |
| CS(=O)(=O)[C@@H]1CCN([C@H]2CCOc3cc(S(=O)(=O)Nc4nccs4)c(F)cc32)[C@H](c2ccc(F)cc2)C1 | hNav1.7 and the β1 subunit (Homo sapiens, UniProt Q15858) | 0.00212 |
| O=S(=O)(Nc1nccs1)c1cc2c(cc1F)[C@@H](N1CC[C@@H](C(F)(F)F)C[C@H]1c1ccc(F)cc1)CCO2 (single isomer, unassigned) | hNav1.7 and the β1 subunit (Homo sapiens, UniProt Q15858) | 0.000828 |
| O=S(=O)(Nc1ncns1)c1ccc2c(c1)OCC[C@@H]2N1CC[C@H](OC(F)(F)F)C[C@@H]1c1ccc(F)cc1 | hNav1.7 and the β1 subunit (Homo sapiens, UniProt Q15858) | 0.00305 |
| O=S(=O)(Nc1ncns1)c1ccc2c(c1)OCC[C@H]2N1CC[C@@](O)(C(F)(F)F)C[C@H]1c1ccc(F)cc1 | hNav1.7 and the β1 subunit (Homo sapiens, UniProt Q15858) | 3 |

P: O=S(=O)(Nc1cccc(F)n1)c1ccc(CN2CCCC[C@@H]2c2ccccc2)c(Cl)c1
Q: C[C@H](c1ccc(S(=O)(=O)Nc2ncns2)cc1Cl)N1CCCC[C@H]1c1ccccc1 (single isomer, unassigned)
Ask: // which entry has the larger Nav1.7 (LBA) value, P or Q ? Pick one; state its label.
Result: Q
(Q: 3.98 µM, P: 2.67 µM)

---

- targetOrTestSystem: hNav1.7 and the β1 subunit (Homo sapiens)
- Construct: expressed in transfected cells
- measurementNotes: Tritiated compound competitive binding to membranes from cells heterologously expressing hNav1.7 and the β1 subunit (LBA)
- settings: competition with 100 pM [3H]compound, 18 h, room temperature; IC50 by 4 parameter logistic model
assayMetric: Nav1.7 (LBA) (µM)

Sample answers from the record:
| molecule | assayMetric | unitInfo | val |
| --- | --- | --- | --- |
| O=S(=O)(Nc1ncns1)c1cc(F)c(CN2CCC(F)(F)C[C@@H]2c2ccccc2)cc1F (single isomer, unassigned) | Nav1.7 (LBA) | µM | 4.16 |
| C[C@H](c1cc(F)c(S(=O)(=O)Nc2ncns2)cc1F)N1CCCC[C@@H]1c1ccccc1 (single isomer, unassigned) | Nav1.7 (LBA) | µM | 3.65 |
| Cn1nccc1[C@@H]1C[C@H](C(F)(F)F)CCN1[C@@H]1CCOc2cc(S(=O)(=O)Nc3ncns3)ccc21 (single isomer, unassigned) | Nav1.7 (LBA) | µM | 0.601 |
| CC(C)(C)OC(=O)N1CCN([C@H]2CCOc3cc(S(=O)(=O)Nc4ncns4)ccc32)[C@H](c2ccc(F)cc2)C1 | Nav1.7 (LBA) | µM | 0.0183 |
| Cn1nccc1[C@@H]1C[C@H](C(F)(F)F)CCN1[C@H]1CCOc2cc(S(=O)(=O)Nc3ncns3)ccc21 (single isomer, unassigned) | Nav1.7 (LBA) | µM | 0.000616 |

P: O=S(=O)(Nc1ncns1)c1cc(F)c(CN2CCCC[C@H]2c2ccnnc2)cc1F (single isomer, unassigned)
Q: O=S(=O)(Nc1nccs1)c1cc2c(cc1F)[C@H](N1CC[C@@H](C(F)(F)F)C[C@H]1c1ccccn1)CCO2
R: O=S(=O)(Nc1ncns1)c1cc(F)c(CN2CC[C@@H](O)C[C@H]2c2ccccc2)cc1F
S: O=S(=O)(Nc1ncns1)c1ccc2c(c1)OCC[C@H]2N1CCCC[C@H]1c1cccnc1 (single isomer, unassigned)
Ask: Please list the entries, largest Nav1.7 (LBA) first. In your reply, arrange the labels in the requested order.
Result: R, P, Q, S

1: O=S(=O)(Nc1ncns1)c1cc(Cl)c(CN2CCCCC2c2ccncc2)cc1F (stereo not shown)
2: O=S(=O)(Nc1ncns1)c1ccc(CN2CCC[C@H]2c2ccccc2)c(Cl)c1
Ask: // which entry has the larger Nav1.7 (LBA) value, 1 or 2 ? Pick one; state its label.
Result: 2

A: C[C@@H]1CC[C@H](c2ccccc2)N(Cc2cc(F)c(S(=O)(=O)Nc3ncns3)cc2F)C1 (single isomer, unassigned)
B: O=S(=O)(Nc1ncns1)c1ccc2c(c1)OCC[C@@H]2N1CCC(F)(F)C[C@@H]1c1ccccc1 (single isomer, unassigned)
Ask: // which entry has the larger Nav1.7 (LBA) value, A or B ? Pick one; state its label.
Result: A
